Measured EC50 values are reported for all entries that follow.
tested on: A498; experiment: Cytotoxicity against human A498 cells after 7 days by MTT assay; format: functional; settings: A498, 168 h, read-out: ED50 (the source's name)
Give just the numeric value; µg/mL need not be written.

{"SMILES_STRUCTURE": "CCCCCCCCCC[C@@H](O)[C@H]1CC[C@@H]([C@H]2CC[C@H]([C@H](O)CCCC[C@H](O)CCCCC[C@@H](O)CC3=C[C@H](C)OC3=O)O2)O1", "EC50, µg/mL": 0.01}

Now for the molecule whose EC50 we want.
Problem: Provide EC50, recorded with A498, of "COc1cccc2c1C(=O)c1c(O)c3c(c(O)c1C2=O)C[C@@](O)(C(=O)CO)C[C@@H]3O[C@H]1C[C@H](N)[C@H](O)[C@H](C)O1"
Solution: 0.00178

---

Measured LC50 values are reported for all entries that follow.
system: Artemia salina; test: Toxicity to Artemia salina; type: organism-based; conditions: in vivo

Completed entries (count: 3):
{"MOLECULE": "COc1cccc2c1C(=O)c1c(O)c3c(c(O)c1C2=O)C[C@@](O)(C(=O)CO)C[C@@H]3O[C@H]1C[C@H](N)[C@H](O)[C@H](C)O1 [DOXORUBICIN]", "SYSTEM_TESTED": "Artemia salina", "OBSERVED_PROPERTY": "LC50", "RESULT": "8 ×10⁻² ppm"}
{"MOLECULE": "CCCCCCCCCC[C@@H](O)[C@H]1CC[C@H]([C@H]2CC[C@H]([C@H](O)CCCC[C@H](O)CCCCCCCC3=C[C@H](C)OC3=O)O2)O1 [ASIMIN]", "SYSTEM_TESTED": "Artemia salina", "OBSERVED_PROPERTY": "LC50", "RESULT": "4.6 ×10⁻³ ppm"}
{"MOLECULE": "CCCCCCCCCC[C@@H](O)[C@H]1CC[C@H]([C@H]2CC[C@H]([C@H](O)CCCC[C@H](O)CCCCC[C@@H](O)CC3=C[C@H](C)OC3=O)O2)O1", "SYSTEM_TESTED": "Artemia salina", "OBSERVED_PROPERTY": "LC50", "RESULT": "4.3 ×10⁻¹ ppm"}

Problem: Provide LC50, recorded with Artemia salina, of CC[C@H](O)[C@H](O)CCCCCC[C@H](O)[C@H]1CC[C@H]([C@H]2CC[C@H]([C@H](O)CCCCCCCCCCCCC3=C[C@H](C)OC3=O)O2)O1 [BULLATETROCIN]
Solution: 3.1 ×10⁻¹ ppm

---

system: MCF7; assay: Cytotoxicity against human MCF7 cells after 7 days by MTT assay; format: functional; conditions: Homo sapiens, MCF7, 168 h; read-out: ED50 (the source's name)
Measured EC50 values are reported for all entries that follow.
Give just the numeric value; mg/L need not be written.

{"MOLECULE": "COc1cccc2c1C(=O)c1c(O)c3c(c(O)c1C2=O)C[C@@](O)(C(=O)CO)C[C@@H]3O[C@H]1C[C@H](N)[C@H](O)[C@H](C)O1 [DOXORUBICIN]", "EC50 [mg/L]": 0.17}
{"MOLECULE": "CC[C@H](O)[C@H](O)CCCCCC[C@H](O)[C@H]1CC[C@H]([C@H]2CC[C@H]([C@H](O)CCCCCCCCCCCCC3=C[C@H](C)OC3=O)O2)O1 [BULLATETROCIN]", "EC50 [mg/L]": 0.497}
{"MOLECULE": "CCCCCCCCCCC(O)C1CCC(C2CCC(C(O)CCCCCCCC[C@H](O)CC3=C[C@@H](C)OC3=O)O2)O1 (stereo not given in full) [ASIMICIN]", "EC50 [mg/L]": 0.852}
{"MOLECULE": "CCCCCCCCCC[C@@H](O)[C@H]1CC[C@H]([C@H]2CC[C@H]([C@H](O)CCCC[C@H](O)CCCCC[C@@H](O)CC3=C[C@H](C)OC3=O)O2)O1", "EC50 [mg/L]": 0.327}

Problem: Give the reported EC50 for this molecule. CCCCCCCCCC[C@@H](O)[C@H]1CC[C@@H]([C@H]2CC[C@H]([C@H](O)CCCCCCCCCC[C@@H](O)CC3=C[C@H](C)OC3=O)O2)O1 [TRILOBACIN]
Solution: 0.339

---

system: Artemia salina; test: Toxicity to Artemia salina; format: organism-based; settings: in vivo
OBSERVED_PROPERTY: LC50 (×10⁻³ ppm)
Give just the numeric value; ×10⁻³ ppm need not be written.

Completed entries (count: 2):
{"COMPOUND": "CCCCCCCCCC[C@@H](O)[C@H]1CC[C@@H]([C@H]2CC[C@H]([C@H](O)CCCCCCCCCC[C@@H](O)CC3=C[C@H](C)OC3=O)O2)O1 [TRILOBACIN]", "QUANTITATIVE_READOUT": 8.7}
{"COMPOUND": "CCCCCCCCCC[C@@H](O)[C@H]1CC[C@@H]([C@H]2CC[C@H]([C@H](O)CCC[C@H](O)CCCCCCCC3=C[C@H](C)OC3=O)O2)O1 [TRILOBIN]", "QUANTITATIVE_READOUT": 9.7}

Problem: Give the reported LC50 for this compound. CCCCCCCCCC[C@H](O)[C@H]1CC[C@H]([C@H]2CC[C@H]([C@H](O)CCCCCCCCCCCCC3=C[C@H](C)OC3=O)O2)O1 [BULLANIN]
Solution: 6

---

test system: HT-29; test: Cytotoxicity against human HT29 cells after 7 days by MTT assay; type: functional
OBSERVED_PROPERTY: ED50

Completed entries (count: 5):
{"MOLECULE": "CC[C@H](O)[C@H](O)CCCCCC[C@H](O)[C@H]1CC[C@H]([C@H]2CC[C@H]([C@H](O)CCCCCCCCCCCCC3=C[C@H](C)OC3=O)O2)O1", "RESULT": "3.32 ×10⁻⁵ ug/ml"}
{"MOLECULE": "CCCCCCCCCCC(O)C1CCC(C2CCC(C(O)CCCCCCCC[C@H](O)CC3=C[C@@H](C)OC3=O)O2)O1 (stereo partly specified)", "RESULT": "<1 ×10⁻¹² ug/ml"}
{"MOLECULE": "CCCCCCCCCC[C@@H](O)[C@H]1CC[C@@H]([C@H]2CC[C@H]([C@H](O)CCCCCCCCCC[C@@H](O)CC3=C[C@H](C)OC3=O)O2)O1", "RESULT": "<1 ×10⁻¹² ug/ml"}
{"MOLECULE": "CCCCCCCCCC[C@H](O)[C@H]1CC[C@H]([C@H]2CC[C@H]([C@H](O)CCCCCCCCCCCCC3=C[C@H](C)OC3=O)O2)O1", "RESULT": "4.77 ×10⁻¹⁴ ug/ml"}
{"MOLECULE": "CCCCCCCCCC[C@@H](O)[C@H]1CC[C@@H]([C@H]2CC[C@H]([C@H](O)CCC[C@H](O)CCCCCCCC3=C[C@H](C)OC3=O)O2)O1", "RESULT": "2.2 ×10⁻⁸ ug/ml"}

Problem: Give the reported ED50 for this molecule. "CCCCCCCCCC[C@@H](O)[C@H]1CC[C@H]([C@H]2CC[C@H]([C@H](O)CCCC[C@H](O)CCCCCCCC3=C[C@H](C)OC3=O)O2)O1"
Solution: <1 ×10⁻¹² ug/ml
